biological target: human STING protein (140-379), WT (Homo sapiens, UniProt Q86WV6, H232R); assay: Radiometric filtration binding competition assay (FBA), hSTING-WT; conditions: WT-hSWAT IC50 (μM), WT_FBA_HIS-SUMO-hSWAT; wild-type human STING; competition with [H3] 2′3′cGAMP
Sequence (Q86WV6 140-379 H232R): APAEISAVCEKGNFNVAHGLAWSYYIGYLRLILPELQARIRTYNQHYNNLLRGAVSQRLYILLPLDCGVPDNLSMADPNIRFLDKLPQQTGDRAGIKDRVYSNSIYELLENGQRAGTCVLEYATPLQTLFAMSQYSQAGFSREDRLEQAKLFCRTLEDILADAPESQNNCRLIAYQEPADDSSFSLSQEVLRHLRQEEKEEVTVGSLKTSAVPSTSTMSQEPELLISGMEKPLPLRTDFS
measure: IC50

compound | value
CN(C)c1c(Cl)ccc2c(=O)c3ccc(-c4ccn(C(=O)OC(C)(C)C)c4)cc3n(CC(=O)O)c12 | < 20 µM
CN(C)c1c(Cl)ccc2c(=O)c3ccc(-c4ccco4)cc3n(CC(=O)NS(C)(=O)=O)c12 | < 20 µM
CN(C)c1c(Cl)ccc2c(=O)c3cc(Cl)c(Br)cc3n(CC(=O)O)c12 | 20 to 100 µM
CN(C)c1c(Cl)ccc2c(=O)c3ccc(C4=CCOC4)cc3n(CC(=O)O)c12 | < 20 µM
CN(C)c1c(Cl)ccc2c(=O)c3ccc(C4(C#N)CC4)cc3n(CC(=O)O)c12 | 20 to 100 µM
Cc1ccc2c(=O)c3ccc(Cl)c(N(C)C)c3n(CC(=O)NC#N)c2c1 | 20 to 100 µM
COc1c(Cl)ccc2c(=O)c3ccc(C4CCC(N5CCN(C)CC5)CC4)cc3n(CC(=O)O)c12 (stereo not shown) | 20 to 100 µM
CN(C)c1c(Cl)ccc2c(=O)c3ccc(-c4ccco4)cc3n(CC(=O)O)c12 | 20 to 100 µM
COc1c(Cl)ccc2c(=O)c3ccc(C4=CCC(N5CCN(C)CC5)CC4)cc3n(CC(=O)O)c12 (stereo not shown) | 20 to 100 µM
CC/C=C(\CC)c1ccc2c(=O)c3ccc(Cl)c(OC)c3n(CC(=O)O)c2c1 | 20 to 100 µM
CN(C)c1c(Cl)ccc2c(=O)c3ccc(C4=CCCCC4)cc3n(CC(=O)O)c12 | < 20 µM
CN(C)c1c(Cl)ccc2c(=O)c3ccc(-c4ccncc4)cc3n(CC(=O)O)c12 | < 20 µM
CN(C)c1c(Cl)ccc2c(=O)c3cc(Cl)c(Nc4c(F)cccc4F)cc3n(CC(=O)O)c12 | < 20 µM
COCCOc1cccc2c(=O)c3ccc(Cl)c(OC)c3n(CC(=O)O)c12 | > 300 µM
COc1ccccc1Nc1ccc2c(=O)c3ccc(Cl)c(N(C)C)c3n(CC(=O)O)c2c1 | < 20 µM
Cc1cc2c(cc1Br)c(=O)c1ccc(Cl)c(N(C)C)c1n2CC(=O)O | 20 to 100 µM
CN(C)c1c(Cl)ccc2c(=O)c3ccc(-c4cc[nH]c4)cc3n(CC(=O)O)c12 | < 20 µM
Cc1ccc2c(=O)c3ccc(C(F)(F)F)c(N(C)C)c3n(CC(=O)O)c2c1 | > 300 µM
Cc1ccc2c(=O)c3ccc(Cl)c(C(C)C)c3n(CC(=O)O)c2c1 | > 300 µM
